Collected Tm values appear next to each entry.
Test description: melting temperature; melt of duplexes
Condition summary: sodium 0.0675 M; strand 1 µM

| Substance | Tm / °C |
| --- | --- |
| CGACGTGCTTAATGTGCTG+CAGCACATCGTGCACGTCG ((((((((...((((((((+))))))))...)))))))) | 43.3 |
| CGACGTGCCGCATGTGCTG+CAGCACATCTGGCACGTCG (((((((((..((((((((+))))))))..))))))))) | 54.2 |
| CGACGTGCAACATGTGCTG+CAGCACATGCGGCACGTCG ((((((((..(((((((((+)))))))))..)))))))) | 53.5 |
| CGACGTGCCCGATGTGCTG+CAGCACATCTCGCACGTCG ((((((((..(((((((((+)))))))))..)))))))) | 51.6 |

* * *

Test description: melting temperature; UV melt of duplexes
Condition summary: sodium 0.07 M; strand 2 µM

| Substance | Units symbol | Tm |
| --- | --- | --- |
| CAGCCTCGTTCGCACAGCCC+GGGCTGTGCGAACGAGGCTG ((((((((((((((((((((+)))))))))))))))))))) | °C | 67.2 |
| TACTTCCAGTGCTCAGCGTA+TACGCTGAGCACTGGAAGTA ((((((((((((((((((((+)))))))))))))))))))) | °C | 60.3 |
| GTCATACGACTGAGTGCAACATTGTTCAAA+TTTGAACAATGTTGCACTCAGTCGTATGAC ((((((((((((((((((((((((((((((+)))))))))))))))))))))))))))))) | °C | 62.7 |
| CCGTGCGGTGTGTACGTTTTATTCATCATA+TATGATGAATAAAACGTACACACCGCACGG ((((((((((((((((((((((((((((((+)))))))))))))))))))))))))))))) | °C | 63.9 |
| GTTCACGTCCGAAAGCTCGAAAAAGGATAC+GTATCCTTTTTCGAGCTTTCGGACGTGAAC ((((((((((((((((((((((((((((((+)))))))))))))))))))))))))))))) | °C | 64.3 |
| CGGAATCCATGTTACTTCGGCTATC+GATAGCCGAAGTAACATGGATTCCG (((((((((((((((((((((((((+))))))))))))))))))))))))) | °C | 60.9 |
| CGTACTAGCGTTGGTCATGG+CCATGACCAACGCTAGTACG ((((((((((((((((((((+)))))))))))))))))))) | °C | 59.6 |
| GAGATTGTTTCCCTTTCAAA+TTTGAAAGGGAAACAATCTC ((((((((((((((((((((+)))))))))))))))))))) | °C | 49.3 |
| CTGGTCTGGATCTGAGAACTTCAGG+CCTGAAGTTCTCAGATCCAGACCAG (((((((((((((((((((((((((+))))))))))))))))))))))))) | °C | 62.1 |
| AAAGGTGTCGCGGAGAGTCGTGCTG+CAGCACGACTCTCCGCGACACCTTT (((((((((((((((((((((((((+))))))))))))))))))))))))) | °C | 69.6 |
| TATGTATATTTTGTAATCAG+CTGATTACAAAATATACATA ((((((((((((((((((((+)))))))))))))))))))) | °C | 44.4 |
| GCCCCTCCACTGGCCGACGGCAGCAGGCTC+GAGCCTGCTGCCGTCGGCCAGTGGAGGGGC ((((((((((((((((((((((((((((((+)))))))))))))))))))))))))))))) | °C | 76.3 |
| TAACCATACTGAATACCTTTTGACG+CGTCAAAAGGTATTCAGTATGGTTA (((((((((((((((((((((((((+))))))))))))))))))))))))) | °C | 56.5 |
| TGGATTCTACTCAACCTTAGTCTGG+CCAGACTAAGGTTGAGTAGAATCCA (((((((((((((((((((((((((+))))))))))))))))))))))))) | °C | 59 |
| TCAGTAGGCGTGACGCAGAGCTGGCGATGG+CCATCGCCAGCTCTGCGTCACGCCTACTGA ((((((((((((((((((((((((((((((+)))))))))))))))))))))))))))))) | °C | 72.2 |
| TAGTGGCGATTAGATTCTGC+GCAGAATCTAATCGCCACTA ((((((((((((((((((((+)))))))))))))))))))) | °C | 57 |
| GACCTGACGTGGACCGCTCCTGGGCGTGGT+ACCACGCCCAGGAGCGGTCCACGTCAGGTC ((((((((((((((((((((((((((((((+)))))))))))))))))))))))))))))) | °C | 74.4 |

* * *

Test description: melting temperature; melt of duplexes
Condition summary: sodium 0.0675 M; strand 1 µM

| Substance | Tm, °C |
| --- | --- |
| CGACGTGCAATATGTGCTG+CAGCACATGAGGCACGTCG ((((((((...((((((((+))))))))...)))))))) | 51.3 |
| CGACGTGCCGAATGTGCTG+CAGCACATGGGGCACGTCG (((((((((..((((((((+))))))))..))))))))) | 56.8 |
| CGACGTGCTTCATGTGCTG+CAGCACATCTTGCACGTCG ((((((((...((((((((+))))))))...)))))))) | 48.3 |
| CGACGTGCAGGATGTGCTG+CAGCACATCACGCACGTCG ((((((((..(((((((((+)))))))))..)))))))) | 55.9 |
| CGACGTGCTCGATGTGCTG+CAGCACATGCAGCACGTCG (((((((((..((((((((+))))))))..))))))))) | 52.1 |
| CGACGTGCACTATGTGCTG+CAGCACATGGTGCACGTCG ((((((((((.((((((((+)))))))).)))))))))) | 56.6 |
| CGACGTGCTTCATGTGCTG+CAGCACATATTGCACGTCG ((((((((...((((((((+))))))))...)))))))) | 49.1 |

* * *

Collected Tm values appear next to each entry.
Test description: melting temperature; UV melt of duplexes
Condition summary: sodium 1.02 M; strand 2 µM

| Substance | Tm (°C) |
| --- | --- |
| TTATGTATTAAGTTATATAGTAGTAGTAGT+ACTACTACTACTATATAACTTAATACATAA ((((((((((((((((((((((((((((((+)))))))))))))))))))))))))))))) | 66.6 |
| CAGCCTCGTTCGCACAGCCC+GGGCTGTGCGAACGAGGCTG ((((((((((((((((((((+)))))))))))))))))))) | 78.1 |
| AGCTGCAGTGGATGTGAGAA+TTCTCACATCCACTGCAGCT ((((((((((((((((((((+)))))))))))))))))))) | 73.1 |
| CTTCAACGGATCAGGTAGGACTGTGGTGGG+CCCACCACAGTCCTACCTGATCCGTTGAAG ((((((((((((((((((((((((((((((+)))))))))))))))))))))))))))))) | 80.1 |
| GACCTGACGTGGACCGCTCCTGGGCGTGGT+ACCACGCCCAGGAGCGGTCCACGTCAGGTC ((((((((((((((((((((((((((((((+)))))))))))))))))))))))))))))) | 86.4 |
| GTCATACGACTGAGTGCAACATTGTTCAAA+TTTGAACAATGTTGCACTCAGTCGTATGAC ((((((((((((((((((((((((((((((+)))))))))))))))))))))))))))))) | 76.9 |

* * *

Test description: melting temperature; UV melt of duplexes
Condition summary: sodium 1.02 M; strand 2 µM
Measured quantity: Tm (°C)

| Substance | Measured quantity | Numeric value |
| --- | --- | --- |
| CCGTGCGGTGTGTACGTTTTATTCATCATA+TATGATGAATAAAACGTACACACCGCACGG ((((((((((((((((((((((((((((((+)))))))))))))))))))))))))))))) | Tm | 77.6 |
| GTTCACGTCCGAAAGCTCGAAAAAGGATAC+GTATCCTTTTTCGAGCTTTCGGACGTGAAC ((((((((((((((((((((((((((((((+)))))))))))))))))))))))))))))) | Tm | 78.7 |
| TCCACACGGTAGTAAAATTAGGCTT+AAGCCTAATTTTACTACCGTGTGGA (((((((((((((((((((((((((+))))))))))))))))))))))))) | Tm | 73.8 |
| GTGGTGGGCCGTGCGCTCTG+CAGAGCGCACGGCCCACCAC ((((((((((((((((((((+)))))))))))))))))))) | Tm | 81 |
| CGGAATCCATGTTACTTCGGCTATC+GATAGCCGAAGTAACATGGATTCCG (((((((((((((((((((((((((+))))))))))))))))))))))))) | Tm | 74.8 |
| TAGTGGCGATTAGATTCTGC+GCAGAATCTAATCGCCACTA ((((((((((((((((((((+)))))))))))))))))))) | Tm | 71.2 |
| CAGTGGGCTCCTGGGCGTGCTGGTC+GACCAGCACGCCCAGGAGCCCACTG (((((((((((((((((((((((((+))))))))))))))))))))))))) | Tm | 83.4 |
| ATGGGTGGGAGCCTCGGTAGCAGCC+GGCTGCTACCGAGGCTCCCACCCAT (((((((((((((((((((((((((+))))))))))))))))))))))))) | Tm | 83.4 |
| TATGTATATTTTGTAATCAG+CTGATTACAAAATATACATA ((((((((((((((((((((+)))))))))))))))))))) | Tm | 61.2 |
| TCAGTAGGCGTGACGCAGAGCTGGCGATGG+CCATCGCCAGCTCTGCGTCACGCCTACTGA ((((((((((((((((((((((((((((((+)))))))))))))))))))))))))))))) | Tm | 84.6 |
| GAGATTGTTTCCCTTTCAAA+TTTGAAAGGGAAACAATCTC ((((((((((((((((((((+)))))))))))))))))))) | Tm | 65.3 |
| TACTTCCAGTGCTCAGCGTA+TACGCTGAGCACTGGAAGTA ((((((((((((((((((((+)))))))))))))))))))) | Tm | 73.6 |
| CTTAAGATATGAGAACTTCAACTAATGTGT+ACACATTAGTTGAAGTTCTCATATCTTAAG ((((((((((((((((((((((((((((((+)))))))))))))))))))))))))))))) | Tm | 71.8 |
| TGGATTCTACTCAACCTTAGTCTGG+CCAGACTAAGGTTGAGTAGAATCCA (((((((((((((((((((((((((+))))))))))))))))))))))))) | Tm | 73.6 |
